Test system: M14 melanoma
PROTOCOL: NCI-60 one-dose screen, 48 h
RUN_CONDITIONS: 10 µM unless noted
The panel holds about 83,000 compounds, 20% with a hit somewhere; the sample as a whole holds those more often. Activity calls are given as the source filed them. Rule for the calls: active = growth percent below 10; inactive = the rest.
Hi! Could you answer with just one of these? active, inactive

Examples with answers:
{"columns": ["LINE_NOTATION", "ASSIGNED_LABEL"],
 "data": [
  ["O=C(/C=C/c1ccc[nH]1)c1ccc(-n2ccc(C(F)(F)F)n2)cc1", "inactive"],
  ["CCc1c(Nc2ccc(C)cc2)nc(N)[nH]c1=O", "inactive"],
  ["O=c1[nH]c(=O)[nH]c(=S)[nH]1", "inactive"],
  ["COc1cc(-c2nc3sccn3c2-c2ccnc(NCCNS(=O)(=O)c3ccc(F)cc3)n2)ccc1F", "active"]
]}

Enquiry: Hi, do you know how O=C(CCN1CCCC1)Nc1ccc2c(Nc3ccccc3)c3ccccc3nc2c1 came out in this test?
Return: active

Enquiry: Let us now turn to O=S(=O)(NCCNc1nccc(-c2c(-c3cccc(F)c3)nc3occn23)n1)c1cccc2ccccc12
Return: inactive

Enquiry: Another compound to check: c1ccc(-c2nn(-c3ccccc3)[n+](-c3cccc4ccccc34)n2)cc1
Return: inactive

Enquiry: Entry CN1CCN(CCCOc2ccc3ncnc(Nc4ccc(Oc5cccc(C(F)(F)F)c5)c(Cl)c4)c3c2)CC1 please
Return: active

Enquiry: What about S=c1[nH]cccc1-c1nnc2n1Nc1nc3ccc(Cl)cc3cc1CS2 ?
Return: inactive

Enquiry: What do you have for CCNC(=S)NNC(=O)c1cc2ccc1CCc1ccc(cc1)CC2 ?
Return: inactive

###

System: NCI/ADR-RES ovarian
PROTOCOL: NCI-60 one-dose screen, 48 h
RUN_CONDITIONS: 10 µM unless noted
The panel holds about 83,000 compounds, 20% with a hit somewhere; the sample as a whole holds those more often. Active and inactive are the calls of the source. How the source made its calls: active means growth percent below 10; inactive means the rest.
Pick one and only one: 1 for active, 0 for inactive

{"columns": ["MOLECULE", "ASSIGNED_LABEL"],
 "data": [
  ["Cn1c(COC(=O)NCCn2ccnc2)nc2c(N3CCOCC3)nc(-c3ccccc3)nc21", 1],
  ["COc1ccc(/C=N/NC(=O)c2cccc3cc[nH]c23)cc1O", 1],
  ["C=CCn1c(SCC(=O)Nc2ccc(C(=O)/C=C/c3cc(OC)c(OC)c(OC)c3)cc2)nnc1-c1cc(-c2ccc(S(C)(=O)=O)cc2)nc2ccccc12", 0],
  ["COc1cc(CCNc2nc3cc(N)cc(N)c3nc2-c2ccccc2)cc(OC)c1", 0]
]}

Enquiry: Field: outcome | Entry: CC(=O)[C@@H]1CC[C@]2(C(=O)n3ccnc3)CC[C@]3(C)[C@H](CC[C@@H]4[C@@]5(C)Cc6c([nH]c7ccccc67)C(C)(C)[C@@H]5CC[C@]43C)[C@@H]12
Return: 0

Enquiry: Next: O=C1Nc2c(ccc(Cl)c2Cl)/C1=C/c1ccc(O)cc1
Return: 0

###

Would you mind telling me the reported growth of each entry?
Test system: UACC-257 melanoma
PROTOCOL: NCI-60 one-dose screen, 48 h (100 = growth as untreated, 0 = no growth, -100 = all killed)
RUN_CONDITIONS: 10 µM unless noted
This is part of a sample that, as a whole, favours compounds with a hit. Of some 83,000 tested, about 20% had one in any assay. The source made the active and inactive calls. How the source made its calls: active means growth percent below 10; inactive means the rest.

{"columns": ["COMPOUND", "OBSERVED_MEASUREMENT"],
 "data": [
  ["COc1ccc(C(O)c2cc3c(N)c(C(=O)Nc4ccc(Br)cc4)sc3nc2C)cc1 (configuration not stated)", "32.3% (inactive)"],
  ["BrC(Br)(Br)c1cnc2ccccc2n1", "39.9% (inactive)"],
  ["COc1ccc(C2CC(n3nnnc3-c3ccccc3)=NN2)cc1 (configuration not stated)", "101% (inactive)"],
  ["C#Cc1cccc(NC(=O)Nc2ccc(NC(=O)CCl)cc2)c1", "35.1% [8.25 µM] (inactive)"],
  ["c1ccc(N2N=C(c3cccc(Nc4ccncc4)c3)CC2c2ccc3c(c2)OCO3)cc1 (configuration not stated)", "27.2% (inactive)"]
]}

Batch of 4 compounds: report growth for each.
1. CCCC1C(C(=O)OCC)=C(N)Oc2cc(O)ccc21 (configuration not stated)
2. O=C1CCC(NC(=S)Nc2ccccc2)N1 (configuration not stated)
3. Fc1ccc(-n2cc(COc3ncnc4sc5c(c34)CCCC5)nn2)cc1Cl
4. N#CC1=C(N)Oc2c(ccc3ccccc23)C1c1ccc([N+](=O)[O-])cc1 (configuration not stated)

Return:
["104% (inactive)", "104% (inactive)", "102% (inactive)", "94.7% (inactive)"]

Please give growth, item by item, for the list that follows.
1. FC(F)(F)c1cccc(Oc2ccc(Nc3ncnc4ccc(OCCCN5CCOCC5)cc34)cc2Cl)c1
2. CCCCCCCCCCCCC1CCC/C=C\CCC(=O)O1 (configuration not stated)
3. O=C(CN1CCOCC1)Nc1ccc2ncnc(Nc3ccc(Oc4cccc(C(F)(F)F)c4)c(Cl)c3)c2c1

Return:
["40.1% (inactive)", "119% (inactive)", "83.3% (inactive)"]

Parameters: items (list). Returns: growth for each item.
1. COc1cccc(CNCCN2C(=O)c3ccc4c5c(ccc(c35)C2=O)C(=O)N(CCNCc2cccc(OC)c2)C4=O)c1
2. Cc1n[nH]c(C)c1-c1c(C)n[nH]c1C
3. COC(=O)C1NC(=S)N(c2ccc(Cl)cc2)C1/C=C/c1ccccc1 (configuration not stated)
4. CCN(CCNc1cc(OC)cc2cccnc12)CCc1ccccc1
5. Cc1ccc(C2CC(c3cccc(Nc4ccncc4)c3)=NN2c2cc(Cl)cc(Cl)c2)cc1 (configuration not stated)
6. NC(=S)N/N=C(/c1ccccc1)c1ccccc1N
7. S=c1[nH]cccc1-c1nnc2n1Nc1nc3ccccc3cc1CS2

Return:
1. 79.1% (inactive)
2. 39.6% (inactive)
3. 99.3% (inactive)
4. 77.8% (inactive)
5. 76.2% (inactive)
6. 54% (inactive)
7. 110% (inactive)

###

System: HOP-62 NSCLC
PROTOCOL: NCI-60 one-dose screen, 48 h (100 = growth as untreated, 0 = no growth, -100 = all killed)
RUN_CONDITIONS: 10 µM unless noted
This is part of a sample that, as a whole, favours compounds with a hit. Of some 83,000 tested, about 20% had one in any assay.
PROPERTY_NAME: growth (%)
One number for each entry, in %.

Example molecules with recorded growth:
{"columns": ["LINE_NOTATION", "growth (%)"],
 "data": [
  ["COc1ccc2nc(N=Nc3c(O)ccc4ccccc34)sc2c1", 30.2],
  ["O=c1[nH]nc(-c2ccc(Cl)cc2)cc1Cc1cccc([N+](=O)[O-])c1", 96.3],
  ["CC1(C)[C@H](O)CC[C@]2(C)[C@@H]1CC[C@@]13C[C@@H](CC[C@H]12)[C@@](O)(CO)C3", 103],
  ["CCCCc1ccc(Nc2nnc(SCC(=O)NC(=O)NCC)s2)cc1", 96],
  ["COc1ccc(CC(C)=C(c2ccc(OCCN(C)C)cc2)c2ccc(OCCN(C)C)cc2)cc1", 82.6],
  ["O=C(O)/C=C\\C(=O)N1C/C(=C\\c2ccccc2Cl)C(=O)/C(=C/c2ccccc2Cl)C1", -24]
]}

# batch size: 4; output growth per entry
1. COc1cc2oc(-c3cccc(C(=O)Nc4ccc(Cl)cc4)c3)cc(=O)c2c(OC)c1OC
2. CC(C)(C)OC(=O)N1C/C(=C\c2ccoc2)C(=O)/C(=C/c2ccoc2)C1
3. NNC(=O)/C(=C\c1ccc([N+](=O)[O-])cc1)CC(=O)c1ccc(Cl)c(Cl)c1
4. O=S(=O)(c1ccc(N/N=C\c2ccccc2)cc1)c1ccc(N/N=C/c2ccccc2)cc1

Return:
12.8
93.9
83.3
46.6

###

System: IGROV1 ovarian
PROTOCOL: NCI-60 one-dose screen, 48 h
RUN_CONDITIONS: 10 µM unless noted
Compounds without any hit were thinned out: in the full panel of roughly 83,000, 20% have a hit. Active and inactive are the calls of the source. Rule for the calls: active = growth percent below 10; inactive = the rest.
Valid outcomes are listed here; reply with one: True (active), False (inactive)

{"columns": ["COMPOUND", "ASSIGNED_LABEL"],
 "data": [
  ["COc1ccc(C(=O)c2cc3c(N)c(C(=O)Nc4cccc(Cl)c4)sc3nc2C)cc1", "False"],
  ["CCCCCN1C=C/C(=C\\C(=O)N(C)c2ccc(Br)cc2)c2ccccc21", "False"],
  ["NC(=O)c1cccc(-c2ccccc2N2CCCCC2)c1", "False"],
  ["O=C(O)c1ccc[n+](CC(=O)N2CCN(c3cc4c(cc3F)c(=O)c(C(=O)O)cn4C3CC3)CC2)c1", "False"],
  ["C(=N\\Nc1ncc(-c2cc3cc4c(cc3o2)OCO4)s1)/c1c[nH]c2ccccc12", "True"]
]}

Enquiry: Look up the recorded call for O=C(N/N=C/c1ccc(F)cc1)c1ccccc1Nc1cccc(C(F)(F)F)c1 in this test.
Return: False

Enquiry: Continue with C[C@@H]1CN(Cc2ccc(/C=C/c3n[nH]c4ccc5nc(-c6cn[nH]c6C(F)(F)F)c6c(c5c34)CCCC6)cc2)C[C@H](C)O1
Return: True

Enquiry: Now the same for CCCCCCCCCCCCCCCC(=O)OC[C@@]1(O)C[C@@]23CC[C@@H]4C(C)(C)[C@H](O)CC[C@@]4(C)[C@@H]2CC[C@H]1C3
Return: False

Enquiry: Same thing, different compound: COc1ccccc1/C=C1\COc2ccc(-c3ccccc3)cc2C1=O
Return: False

Sourced from PubChem BioAssay (NCI)
